Recorded values, source patent US6337316B1.

Exercise: for every item that follows, state its recorded percent change in CTLA-4Ig binding to B7 on Cess B cells (FACS).
molecular target: B7 on Cess B cells; assay: FACS competition with CTLA-4Ig on Cess B cells; one grade per run; - no change, + <10% change, ++ >20% change
Bridge positions count the residues as written; N and C are the ends. Ends that are not written are not given here.

Could you tell me which percent change in CTLA-4Ig binding to B7 on Cess B cells (FACS) is on file for LDSAVEV-OH [AT 117.1] ? < 10%

Value lookup for percent change in CTLA-4Ig binding to B7 on Cess B cells (FACS); key = CSPNQC (disulfide 1-6 (inferred); not fully specified (C-terminus)) [AT 135.1] > 20%

Fill in: percent change in CTLA-4Ig binding to B7 on Cess B cells (FACS) of CMYPPPYYRGGKC (disulfide 1-13 (inferred); not fully specified (C-terminus)) [AT 129.1] is ___ > 20%

Could you tell me which percent change in CTLA-4Ig binding to B7 on Cess B cells (FACS) is on file for CRQADSQVTEC (disulfide 1-11 (inferred); not fully specified (C-terminus)) [AT 128.1] ? < 10%
